B1: glmS ribozyme (parent)
chain: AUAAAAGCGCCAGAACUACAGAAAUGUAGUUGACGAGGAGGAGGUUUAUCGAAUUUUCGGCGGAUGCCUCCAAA

# Variants of: B1
# protocol: kcat; higher = faster cleavage; RNA array
# assay_conditions: with glucosamine-6-phosphate
This sample holds only a part of the variants without activity.
Decide using kcat: a value greater than or equal to 0.0002 s⁻¹ is Satisfied, a smaller one is Not satisfied.

Past entries and their recorded results:
A12C G59A: Not satisfied
G66U C71U: Satisfied

Confirm if kcat reported for the variant U31G C67U is 0.0002 s⁻¹ or above.
Satisfied

Confirm if kcat reported for the variant U45C U56C is 0.0002 s⁻¹ or above.
Satisfied

Confirm if kcat reported for the variant U57C A64G is 0.0002 s⁻¹ or above.
Satisfied

Confirm if kcat reported for the variant A12G C67G C68A is 0.0002 s⁻¹ or above.
Not satisfied

Confirm if kcat reported for the variant C16A G59A is 0.0002 s⁻¹ or above.
Not satisfied

Confirm if kcat reported for the variant A14U G29C is 0.0002 s⁻¹ or above.
Not satisfied

Confirm if kcat reported for the variant U45G C70A is 0.0002 s⁻¹ or above.
Satisfied

Confirm if kcat reported for the variant A39U U55A is 0.0002 s⁻¹ or above.
Satisfied

Confirm if kcat reported for the variant A12U C61G is 0.0002 s⁻¹ or above.
Not satisfied

Confirm if kcat reported for the variant U31A G44A is 0.0002 s⁻¹ or above.
Satisfied
